- TEST: oxidation potential E1 by cyclic voltammetry
- Format: physicochemical
- STUDY_CONDITIONS: Table X
METRIC: E1 (V)

Reported E1 (V) for CCSCCN(c1ccc(C)cc1)[C@@H](C)C(=O)[O-].[Na+] was 0.38 V

====

Overview of recorded Oxidation Potentials of Radicals (X*), E2 for various molecules
- TEST: oxidation potential E2 of radical X by laser flash photolysis
- Format: physicochemical
- STUDY_CONDITIONS: Table C; by parent XY compound; < = more negative than

Sample answers from the record:
MOLECULE	VAL
Cc1ccc(N(CCC(=O)O)C[Si](C)(C)C)cc1	~ -0.9 V
Cc1ccc(NC(CC(=O)O)C(=O)O)cc1 (stereo not drawn)	< -0.9 V
Cn1cc(C(C)(C)C(=O)O)c2ccccc21	-0.81 V
Cc1ccc(NC(C)C(=O)O)cc1 (stereo not drawn)	< -0.9 V
Cc1ccc(N(CC(=O)O)CC(=O)O)cc1	~ -0.9 V

Reported Oxidation Potentials of Radicals (X*), E2 for CC(C(=O)O)N(CC(=O)O)c1ccccc1 (stereo not drawn) was < -0.9 V

Reported Oxidation Potentials of Radicals (X*), E2 for CN(C)c1ccc(C(C)(O)C(=O)O)cc1 (stereo not drawn) was < -0.9 V

Reported Oxidation Potentials of Radicals (X*), E2 for COc1ccc(C(O)C(=O)O)cc1OC (stereo not drawn) was < -0.9 V

Reported Oxidation Potentials of Radicals (X*), E2 for CCCCN(c1ccc(OC)cc1)C(C)C(=O)O (stereo not drawn) was < -0.9 V

Reported Oxidation Potentials of Radicals (X*), E2 for CC(C(=O)O)c1cn(C)c2ccccc12 (stereo not drawn) was -0.56 V

Reported Oxidation Potentials of Radicals (X*), E2 for CCN(CC)c1ccc(C(O)C(=O)O)cc1 (stereo not drawn) was < -0.9 V

Reported Oxidation Potentials of Radicals (X*), E2 for COc1cc(OC)c(C(O)C(=O)O)cc1OC (stereo not drawn) was < -0.9 V

Reported Oxidation Potentials of Radicals (X*), E2 for COc1ccc(N(CC(=O)O)CC(=O)O)cc1 was < -0.9 V

Reported Oxidation Potentials of Radicals (X*), E2 for Cn1cc(CC(=O)O)c2ccccc21 was ~ -0.34 V

Reported Oxidation Potentials of Radicals (X*), E2 for COc1ccc(C(O)C(=O)O)cc1 (stereo not drawn) was < -0.9 V

====

- TEST: Example 4: photographic speed and fog, 365 nm exposure, blue dyed emulsion T-2
- STUDY_CONDITIONS: 0.22 x10^-3 mole/mole Ag; dye I 0.91 x10^-3; dyed control=100
Where a name gives a salt, the structure may show the parent alone.
METRIC: S365
In your answer, state the number alone without any accompanying words.

Sample answers from the record:
COMPOUND	S365
CCSCCN(c1ccccc1)C(C)C(=O)O (stereo not shown) [Compound S-9, sodium salt]	129
CCSCCN(c1cccc(C(N)=O)c1)C(C)C(=O)O (stereo not shown) [Compound S-13]	151

Reported S365 for CCSCCN(c1ccc(Cl)cc1)C(C)C(=O)O (stereo not shown) [Compound S-12, sodium salt] was 145

Reported S365 for CCSCCN(c1ccc(C(=O)O)cc1)C(C)C(=O)O (stereo not shown) [Compound S-11] was 145

====

- TEST: oxidation potential E2 of radical X by laser flash photolysis
- Assay type: physicochemical
- STUDY_CONDITIONS: Table C; by parent XY compound; < = more negative than
METRIC: Oxidation Potentials of Radicals (X*), E2

Sample answers from the record:
MOLECULE	VAL
O=C(O)C(O)c1ccccc1 (centres unmarked) [Compound 49]	-0.75 V
O=C(O)CN(CC(=O)O)c1ccccc1 [Compound 13]	~ -0.85 V
CN(C)c1ccc(CC(=O)O)cc1 [Compound 1]	> -0.5 V
CC(C(=O)O)N1c2ccccc2Sc2ccccc21 (centres unmarked) [Compound 57]	< -0.9 V
O=C(O)C(O)c1c2ccccc2cc2ccccc12 (centres unmarked) [Compound 56]	< -0.9 V

Reported Oxidation Potentials of Radicals (X*), E2 for CCC(C)c1ccc(N(CC(=O)O)C(C)C(=O)O)cc1 (centres unmarked) [Compound 16] was ~ -0.9 V

Reported Oxidation Potentials of Radicals (X*), E2 for Cn1cc(C(O)C(=O)O)c2ccccc21 (centres unmarked) [Compound 43] was -0.89 V

Reported Oxidation Potentials of Radicals (X*), E2 for CC(C(=O)O)N(C)c1ccc(C(=O)O)cc1 (centres unmarked) [Compound 33] was < -0.9 V
